Experimental System: furin, P09958;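 further: purified furin at 1:10 enzyme:substrate in 50 mM HEPES pH 7.5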
Sequence (P09958 whole entry): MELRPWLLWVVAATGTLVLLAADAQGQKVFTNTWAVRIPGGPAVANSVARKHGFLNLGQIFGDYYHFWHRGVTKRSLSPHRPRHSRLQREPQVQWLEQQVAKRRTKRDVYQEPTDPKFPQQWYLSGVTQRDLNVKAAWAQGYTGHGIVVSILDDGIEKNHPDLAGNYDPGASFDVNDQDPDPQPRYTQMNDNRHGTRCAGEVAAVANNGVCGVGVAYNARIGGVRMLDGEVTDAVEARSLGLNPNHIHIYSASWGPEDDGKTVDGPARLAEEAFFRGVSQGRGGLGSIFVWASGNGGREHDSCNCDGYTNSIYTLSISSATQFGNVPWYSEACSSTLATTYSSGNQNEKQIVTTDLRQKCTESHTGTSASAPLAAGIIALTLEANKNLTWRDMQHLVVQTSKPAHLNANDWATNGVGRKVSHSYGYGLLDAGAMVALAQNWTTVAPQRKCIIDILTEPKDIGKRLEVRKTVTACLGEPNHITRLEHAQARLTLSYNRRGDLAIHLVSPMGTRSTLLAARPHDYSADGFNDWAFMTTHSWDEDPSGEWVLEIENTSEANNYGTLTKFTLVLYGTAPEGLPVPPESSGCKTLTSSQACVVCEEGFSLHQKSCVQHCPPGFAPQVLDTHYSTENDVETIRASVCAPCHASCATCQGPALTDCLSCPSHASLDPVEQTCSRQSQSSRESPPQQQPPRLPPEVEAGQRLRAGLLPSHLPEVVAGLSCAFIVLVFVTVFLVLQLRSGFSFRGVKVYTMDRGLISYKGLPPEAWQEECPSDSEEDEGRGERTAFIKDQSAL
Assay Summary: furin cleavage Z-score vs untreated control; higher = more cleavage, active = 3.5 or more, inactive = 1 or less, 8 variable residues between constant flanks
Settings: 7.5 min
The other results are listed elsewhere or left out. The hit rate among all sequences tested is not known here.
Bench note: report the call from T for active, F for inactive

Per the assay record, what outcome was assigned to CADMEVVTSTAGNASASA [HC2286] ?
F

Just curious, what result did CARVCRDLMDAGNASASA [FS-1800] get here?
T

Which outcome was assigned to CAPAQRTKRKAGNASASA [FS-836] in this test?
T

Which outcome did this test record for the sequence CARSLRDLMEAGNASASA [FS-2308] ?
F

Dear all, I need the recorded test outcome for CAYFSMVGNWAGNASASA [HC341] , thank you.
F
